Origin of the recorded values: patent US20240010606A1

System: hepatocytes
Test: Hepatocyte stability assay, human
Type: in vitro ADME
Conditions: 10 μM compound, Table 6
measured quantity: CIint

Worked examples, 4 compounds total:
1. O=C(O)/C=C/C(=O)OC1(c2cc(Cl)c(F)c(Cl)c2)CCC1 [Intermediate 25] : +++ (+++ means >15-30)
2. O=C(O)/C=C/C(=O)OC1(c2ccc(C(F)(F)F)cc2)CCC1 [Intermediate 3] : ++++ (++++ means 5-15)
3. CC(C)(OC(=O)/C=C/C(=O)O)c1ccc(C(F)(F)F)cc1 [Intermediate 21] : ++++ (++++ means 5-15)
4. C[C@H]1C[C@](OC(=O)/C=C/C(=O)O)(c2ccc(C(F)(F)F)cc2)C1 (single isomer, unassigned) [Intermediate 33] : ++++ (++++ means 5-15)

## Input I'd like to know its CIint. The compound in question is O=C(O)/C=C/C(=O)OC1(c2ccc(OC(F)(F)F)cc2)CCC1 [Intermediate 30]
## Output ++++ (++++ means 5-15)

## Input Could you tell me which CIint is on file for O=C(O)/C=C/C(=O)OC1(c2cc(Cl)cc(OC(F)(F)F)c2)CCC1 [Intermediate 41] ?
## Output ++++ (++++ means 5-15)
